assay: Pharmacokinetics of prodrug and amphetamine after oral dosing to male cynomolgus monkeys (Example 21); details: cynomolgus monkey, in vivo, 0.5 mg
reported_endpoint: AUC (ng·h/mL)
One number for each entry, in ng·h/mL.

Q: Supply measured AUC of CC(=O)N[C@H]1C(O)O[C@H](CO)[C@H](O)C1O[C@H](C)C(=O)N[C@@H](C)Cc1ccccc1 (stereo partly shown) in your reply.
Ans: 187

* * *

assay: Pharmacokinetics of prodrug and amphetamine after oral dosing to male cynomolgus monkeys (Example 21); settings: cynomolgus monkey, plasma, 1 mg/kg
reported_endpoint: Tmax (h)
Numbers only, in h.

Q: Supply measured Tmax of C[C@H](N)Cc1ccccc1 [d-Amphetamine, d-amphetamine] in your reply.
Ans: 2.4
